Values from paper PMC7803741

- target_desc: GABAAR-associated protein (GABARAP) (mouse, UniProt Q9DCD6 1-117)
- Sequence (Q9DCD6 whole entry): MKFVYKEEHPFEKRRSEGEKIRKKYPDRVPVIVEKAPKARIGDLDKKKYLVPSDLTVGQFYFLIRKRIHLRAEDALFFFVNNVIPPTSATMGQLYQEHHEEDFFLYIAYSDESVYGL
- measurement_protocol: ITC
measurement_type: Kd (nM)
Hi! Could you send only the number? It should be in nM, unit omitted.

{"binder": "PEDDWTEFSSEEIREARQAAASHAPS [AnkG-WT peptide]", "recorded_measurement": 7}
{"binder": "PEDDWTRFSSEEIREARQAAASHAPS [AnkG-ER peptide]", "recorded_measurement": 7}

Input: For ERDEEYGYECLDGKDCAS [GABAAR γ2 subunit GIM (GABARAP interacting motif, 398–415)] , what is its reported Kd?
Output: 6800
